Values compiled from the Human Domainome abundance scans (Beltran et al. 2025).

B1: Formin-binding protein 4, residues 200 to 261; numbered along this chain, Q8N3X1 (parent)
chain: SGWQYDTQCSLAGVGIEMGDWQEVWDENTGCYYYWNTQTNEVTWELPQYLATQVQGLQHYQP

Variants of: B1
Test: abundance fitness (aPCA) (normalised: wild type 0, dead -1); higher = more abundant; growth selection in yeast, the domain comes from the species named
Conditions: Homo sapiens
The entries below are paired with their reported abundance fitness.

construct_sequence=SGWQYDTQCSLAGVGIEMGDWQEVWDENTGCYYYWNTQTNEVTWELPGYLATQVQGLQHYQP result=-0.007

Entry `SGWQYDTQCSLAGVGIEMGDWQEVWDENTGCYYYWNTQTNEVTWELPQYLATQPQGLQHYQP` : reported abundance fitness = ?
-0.741

What does the data say about its abundance fitness? Entry: `SGWQYDTQCSLAGVGIEMGDWQEVWDETTGCYYYWNTQTNEVTWELPQYLATQVQGLQHYQP`
-0.153

Endpoint output: abundance fitness of `SGWQYDTQCSLAGVGIEMGDWQEVWDELTGCYYYWNTQTNEVTWELPQYLATQVQGLQHYQP` . Value?
-0.233

For the variant shown here, `SGWQYDTQLSLAGVGIEMGDWQEVWDENTGCYYYWNTQTNEVTWELPQYLATQVQGLQHYQP` , give the reported abundance fitness.
0.049

May I ask what abundance fitness has been recorded for `SGWQYDTQCSLAGVGIEMGDWQEVWDENTGCYYYWNTQTNSVTWELPQYLATQVQGLQHYQP` ?
-0.349
